- Assayed target: T1, CRBN, Q96SW2;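 further: pooled lentiviral library of zinc finger degron-EGFP fusions in mCherry-positive Jurkat cells, FACS-sorted after compound exposure, with degron abundance counted by next-generation sequencing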
- T1 chain: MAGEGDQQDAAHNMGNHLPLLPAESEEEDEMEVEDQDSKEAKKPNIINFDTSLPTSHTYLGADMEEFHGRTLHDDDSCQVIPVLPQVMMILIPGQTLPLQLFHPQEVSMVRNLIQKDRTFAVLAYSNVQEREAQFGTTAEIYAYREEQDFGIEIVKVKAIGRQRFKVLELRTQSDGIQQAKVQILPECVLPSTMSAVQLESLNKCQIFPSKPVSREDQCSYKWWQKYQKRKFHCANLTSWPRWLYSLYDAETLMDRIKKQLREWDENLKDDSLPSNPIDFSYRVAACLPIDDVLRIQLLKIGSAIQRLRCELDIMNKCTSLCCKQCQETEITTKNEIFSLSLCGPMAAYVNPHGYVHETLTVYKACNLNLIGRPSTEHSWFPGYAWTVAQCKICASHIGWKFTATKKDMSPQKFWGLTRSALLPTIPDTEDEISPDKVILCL
- Test name: log2 fold change of degron read counts, EGFP-low vs EGFP+ sorted cells (limma voom), compound-induced degradation; higher = more compound-induced degradation of the degron-EGFP fusion; degrons are variants of IKZF1/3 zinc finger 2; compound dose not given here
- Assay context: Jurkat; 18 h; compound: compound 33 (diphenyl IMiD analogue)
The full ranking holds about 8,300 sequences; the median of “log2 fold change of degron read counts, EGFP-low vs EGFP+ sorted cells (limma voom), compound-induced degradation” is about -1.1, and the highest 2% start at about 3.2. The sample as a whole holds a higher share of the highest values than the screen did.
Each entry gets 0 (no) if its log2 fold change of degron read counts stays under 0.5, and 1 (yes) if its log2 fold change of degron read counts is 0.5 or above.

Does the sequence LDCEICGFLCTQKGNLLRHIKL [46L_47D_49E_50I_52G_53F_54L_55C_67L_, Q9UKT9] have recorded log2 fold change of degron read counts that is 0.5 or more?
0 (no)

Does the sequence LLCPICGFACTQKGNLLRHIKL [46L_47L_49P_50I_52G_53F_54A_55C_67L_, Q9UKT9] have recorded log2 fold change of degron read counts that is 0.5 or more?
1 (yes)

Does the sequence FKCEICGARFTQKGNLLRHIKL [46F_47K_49E_50I_52G_53A_54R_55F_67L_, Q9UKT9] have recorded log2 fold change of degron read counts that is 0.5 or more?
0 (no)

Does the sequence FSCEICGALFTQKGNLLRHIKL [46F_47S_49E_50I_52G_53A_54L_55F_67L_, Q9UKT9] have recorded log2 fold change of degron read counts that is 0.5 or more?
1 (yes)

Does the sequence FNCEICGARFTQKGNLLRHIKL [46F_47N_49E_50I_52G_53A_54R_55F_67L_, Q9UKT9] have recorded log2 fold change of degron read counts that is 0.5 or more?
0 (no)
